Molecular target: human TNFα (Homo sapiens)
Construct: purchased Biosource, Camarillo, Calif
Sequence (P01375 77-233 limits assumed): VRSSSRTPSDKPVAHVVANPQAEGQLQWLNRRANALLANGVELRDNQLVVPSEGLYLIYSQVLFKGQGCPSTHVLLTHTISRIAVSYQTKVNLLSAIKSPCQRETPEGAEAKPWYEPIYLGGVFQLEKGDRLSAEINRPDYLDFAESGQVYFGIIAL
Assay: p55 Receptor/IgG Fusion Protein Binding Assay (inhibition of TNFα capture by p55-Ig coated plate)
Details: peptide 1 mM; TNFα 25 ng/ml; read-out: inhibition of binding of TNFα to p55TNFr-IgG chimeric construct
Where a SMILES comes first, the peptide text is derived from it.
This listing pairs compounds with measured inhibition at 1000 µM.

compound	inhibition at 1000 µM / %
CC(C)C[C@H](N)C(=O)N[C@@H](Cc1ccc(O)cc1)C(=O)N[C@@H](CC(N)=O)C(=O)N[C@@H](CC(=O)O)C(=O)N[C@@H](C)C(=O)N1CCC[C@H]1C(=O)NCC(=O)N1CCC[C@H]1C(=O)NCC(=O)N[C@@H](CCC(N)=O)C(=O)N[C@@H](CC(=O)O)C(=O)N[C@H](C(=O)N[C@@H](CC(=O)O)C(=O)N[C@@H](C)C(=O)N[C@@H](CCCNC(=N)N)C(N)=O)[C@@H](C)O [SEQ ID NO:1] (H-LYNDAPGPGQDTDAR-NH2)	46
CC(C)[C@H](NC(=O)[C@H](CCCCN)NC(=O)[C@H](C)NC(=O)[C@@H](N)Cc1c[nH]cn1)C(=O)N[C@@H](Cc1ccccc1)C(=O)N[C@@H](C)C(=O)N[C@H](C(=O)N[C@@H](CCCCN)C(=O)N[C@H](C(=O)N[C@@H](CO)C(=O)N[C@@H](CC(=O)O)C(=O)N[C@H](C(=O)N[C@H](C(=O)N[C@@H](C)C(=O)N[C@@H](CC(=O)O)C(N)=O)C(C)C)[C@@H](C)O)[C@@H](C)O)[C@@H](C)O [SEQ ID NO:31] (H-HAKVFATKTSDTVAD-NH2)	68
CC(C)[C@H](NC(=O)[C@@H](NC(=O)[C@H](CC(=O)O)NC(=O)[C@H](CO)NC(=O)[C@@H](NC(=O)[C@H](CCCCN)NC(=O)[C@@H](N)[C@@H](C)O)[C@@H](C)O)[C@@H](C)O)C(=O)N[C@@H](C)C(=O)N[C@@H](CC(=O)O)C(=O)N[C@@H](CO)C(=O)N[C@@H](C)C(=O)N[C@@H](CCC(=O)O)C(=O)N[C@@H](CC(=O)O)C(=O)N[C@@H](CO)C(=O)N[C@H](C(N)=O)[C@@H](C)O [SEQ ID NO:33] (H-TKTSDTVADSAEDST-NH2)	67
CC(C)C[C@H](NC(=O)[C@H](Cc1ccccc1)NC(=O)[C@H](Cc1ccccc1)NC(=O)CNC(=O)[C@H](C)NC(=O)[C@H](Cc1c[nH]cn1)NC(=O)[C@H](C)NC(=O)[C@@H](NC(=O)[C@H](C)NC(=O)[C@@H](NC(=O)[C@@H](N)[C@@H](C)O)C(C)C)[C@@H](C)O)C(=O)N[C@@H](CCCNC(=N)N)C(=O)N[C@@H](CCC(=O)O)C(=O)N[C@@H](CC(N)=O)C(=O)N[C@@H](CCC(=O)O)C(N)=O [SEQ ID NO:17] (H-TVATAHAGFFLRENE-NH2)	59
C[C@H](NC(=O)[C@@H](NC(=O)[C@H](Cc1ccccc1)NC(=O)[C@H](CO)NC(=O)CNC(=O)[C@H](CO)NC(=O)[C@H](CCC(=O)O)NC(=O)[C@H](C)NC(=O)[C@H](CCC(=O)O)NC(=O)[C@H](CCCNC(=N)N)NC(=O)[C@H](C)NC(=O)[C@H](CC(=O)O)NC(=O)[C@@H](NC(=O)[C@H](CC(=O)O)NC(=O)[C@@H](N)CCC(N)=O)[C@@H](C)O)[C@@H](C)O)C(N)=O [SEQ ID NO:4] (H-QDTDAREAESGSFTA-NH2)	53
